Target: androgen receptor (AR) (Homo sapiens)
Construct: of the androgen receptor (AR, amino acids 667-919)
Sequence (P10275 668-920): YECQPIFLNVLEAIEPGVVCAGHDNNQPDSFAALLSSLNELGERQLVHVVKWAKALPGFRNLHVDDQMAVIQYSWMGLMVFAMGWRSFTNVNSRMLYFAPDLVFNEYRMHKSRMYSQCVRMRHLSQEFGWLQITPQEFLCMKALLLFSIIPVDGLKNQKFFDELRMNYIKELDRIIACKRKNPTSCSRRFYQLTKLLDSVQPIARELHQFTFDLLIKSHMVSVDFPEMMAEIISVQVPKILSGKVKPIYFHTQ
Test: Cellular in vitro assay, GAL4-AR chimera luciferase reporter in CHO K1 cells (selectivity)
Settings: antagonism vs dihydrotestosterone; CHO K1 GAL4-AR LBD luciferase reporter
property.measured: pIC50
Quick note: pIC50 values are minus log10 of concentrations in mol/L.

stdin: Observed pIC50 on androgen receptor (AR) (Homo sapiens) for CS(=O)(=O)Cc1c(F)ccc2c(C(CCC#N)c3ccc(Cl)cc3)c[nH]c12 (stereo not shown) , please.
stdout: 5.40

stdin: Check CS(=O)(=O)Cc1cc(F)cc2c(C(c3ccc(C(F)(F)F)cc3F)C3CC3C#N)c[nH]c12 (single isomer, unassigned) too.
stdout: 6.03

stdin: Check CS(=O)(=O)Cc1cccc2c(C(CCC#N)c3ccc4c(c3)OC(F)(F)O4)c[nH]c12 (stereo not shown) too.
stdout: 5.64

stdin: Check CS(=O)(=O)Cc1cccc2c(C(c3ccc(F)cc3)c3ccc(Cl)cc3)c[nH]c12 (single isomer, unassigned) too.
stdout: 5.91

stdin: Check C[S+]([O-])Cc1cccc2c(C(C)(c3ccc(Cl)cc3F)C3CC3)c[nH]c12 (mixture of isomers) too.
stdout: 5.16

stdin: Check CCC(CCC#N)(c1ccc(Cl)cc1)c1c[nH]c2c(C[S+](C)[O-])cccc12 (mixture of isomers) too.
stdout: 5.32

stdin: Check CS(=O)(=O)Cc1cccc2c(C(c3ccc(Cl)cc3)C3CC3)c[nH]c12 (stereo not shown) too.
stdout: 5.46

---

Target: human mineralocorticoid receptor (MR) (Homo sapiens)
Construct: expressed in transfected cells; host or cells: CHO K1
Sequence (P08235 734-984 limits assumed): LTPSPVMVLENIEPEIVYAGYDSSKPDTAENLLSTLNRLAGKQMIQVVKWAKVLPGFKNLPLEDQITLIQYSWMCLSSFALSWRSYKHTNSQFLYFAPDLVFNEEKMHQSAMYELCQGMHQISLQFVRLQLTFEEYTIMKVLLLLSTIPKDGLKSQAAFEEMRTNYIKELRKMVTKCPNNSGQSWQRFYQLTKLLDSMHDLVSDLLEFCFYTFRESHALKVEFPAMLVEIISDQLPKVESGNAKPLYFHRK
Assay: Cellular in vitro assay, GAL4-MR chimera luciferase reporter in CHO K1 cells (inhibitory MR activity)
Assay type: cell-based
Details: antagonism vs aldosterone; CHO K1 GAL4-MR LBD luciferase reporter
Assign IC50 to each entry below.
Field note: include the unit after the figure.

stdin: Observed IC50 on human mineralocorticoid receptor (MR) (Homo sapiens) for CS(=O)(=O)Cc1cc(F)cc2c(C(c3ccc(C(F)(F)F)cc3F)C3CC3C#N)c[nH]c12 (single isomer, unassigned) , please.
stdout: 6 nM

stdin: Check CC(c1ccc(Cl)cc1)(c1c[nH]c2c(CS(C)(=O)=O)cccc12)C1CC1C#N (stereo not shown) too.
stdout: 40 nM

stdin: Check C[S+]([O-])Cc1cccc2c(C(C)(c3ccc(Cl)cc3F)C3CC3)c[nH]c12 (mixture of isomers) too.
stdout: 120 nM

stdin: Check CS(=O)(=O)Cc1cccc2c(C(c3c(F)cc(Cl)cc3F)C3CC3)c[nH]c12 (stereo not shown) too.
stdout: 71 nM

stdin: Check CS(=O)(=O)Cc1cc(F)cc2c(C(c3ccc(Cl)cc3)C3CC3C#N)c[nH]c12 (single isomer, unassigned) too.
stdout: 8 nM

stdin: Check CCC(CCO)(c1ccc(Cl)cc1)c1c[nH]c2c(CS(C)(=O)=O)cccc12 (stereo not shown) too.
stdout: 30 nM

stdin: Check C[S+]([O-])Cc1cccc2c(C(c3c(F)cc(Cl)cc3F)C3CC3)c[nH]c12 (mixture of isomers) too.
stdout: 190 nM
